// data source = BindingDB's records for doi:10.1021/jm049864b

- Assayed System: Genome polyprotein [1027-1206,R1052K]/[1678-1691] (Hepatitis C virus genotype 1b (isolate Japanese), UniProt P26662+Q9WMX2, R1052K)
- Construct: 1027-1206; 1678-1691
- Sequence (Q9WMX2 1027-1206, looked up, stated change not applied, other chains not shown): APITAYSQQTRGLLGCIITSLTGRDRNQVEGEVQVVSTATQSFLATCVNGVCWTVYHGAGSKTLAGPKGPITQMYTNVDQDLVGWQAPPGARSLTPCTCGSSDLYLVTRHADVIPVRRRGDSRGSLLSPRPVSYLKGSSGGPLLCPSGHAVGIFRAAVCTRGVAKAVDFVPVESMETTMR
- Experiment Summary: HCV Protease Inhibition Assay
- Run Conditions: pH 7.5; 23 °C
Where a SMILES comes first, the peptide text is derived from it. [ ]: non-standard residue; d: D form. Nva = CCC[C@H](N)C(=O)O
Experimental Endpoint: pIC50
By convention, pIC50 is the negative base-10 log of a molar concentration.

Q) Requested field: pIC50. Item: CCC[C@H](NC(=O)[C@@H]1CCCN1C(=O)[C@@H](NC(=O)[C@@H](NC(=O)[C@H](CC(=O)O)NC(=O)[C@H](CC(=O)O)NC(C)=O)[C@@H](C)CC)C(C)C)C(=O)O (Ac-DDIVP[Nva]-OH)
A) 3.82
